target: Glucocorticoid receptor (Homo sapiens, UniProt P04150); assay: Transactivation activity at glucocorticoid receptor alpha human 13D3/Huh7 cells assessed as induction of TAT activity after 4 hrs by spectrophotometry; type: cell-based, Huh-7
Sequence (P04150 whole entry, the tested form may be a part): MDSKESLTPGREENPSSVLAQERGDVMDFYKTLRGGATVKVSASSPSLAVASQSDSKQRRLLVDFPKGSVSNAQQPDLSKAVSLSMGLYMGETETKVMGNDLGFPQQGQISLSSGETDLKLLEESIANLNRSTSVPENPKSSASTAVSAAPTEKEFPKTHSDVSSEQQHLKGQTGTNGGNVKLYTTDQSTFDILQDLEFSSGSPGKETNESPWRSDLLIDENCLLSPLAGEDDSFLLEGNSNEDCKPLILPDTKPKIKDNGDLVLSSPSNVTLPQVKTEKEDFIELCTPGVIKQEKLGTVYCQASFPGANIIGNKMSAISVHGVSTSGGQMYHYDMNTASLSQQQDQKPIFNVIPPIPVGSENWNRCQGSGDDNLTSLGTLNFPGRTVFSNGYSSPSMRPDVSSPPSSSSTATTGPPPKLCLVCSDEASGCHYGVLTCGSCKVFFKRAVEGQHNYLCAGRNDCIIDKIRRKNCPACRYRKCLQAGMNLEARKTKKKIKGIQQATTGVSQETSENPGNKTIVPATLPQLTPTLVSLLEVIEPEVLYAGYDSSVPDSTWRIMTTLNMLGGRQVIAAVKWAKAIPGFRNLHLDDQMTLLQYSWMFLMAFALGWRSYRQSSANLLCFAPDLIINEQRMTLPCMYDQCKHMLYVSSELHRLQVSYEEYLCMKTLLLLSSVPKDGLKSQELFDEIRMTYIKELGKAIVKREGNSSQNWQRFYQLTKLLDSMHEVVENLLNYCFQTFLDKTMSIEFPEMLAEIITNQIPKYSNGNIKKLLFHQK
pEC50: −log10 of the molar value.
OBSERVABLE: pEC50

SUBSTANCE_SMILES | CENSORING_OPERATOR | OBSERVED_MEASUREMENT
CN(C)C(=O)c1ccc(-c2ccc3c(n2)Oc2ccccc2[C@H]3C(C)(C)C(=O)Nc2nncs2)cc1F | = | 6.82
CC(C)(C(=O)Nc1nncs1)[C@H]1c2ccccc2Oc2nc(-c3ccccc3)ccc21 | < | 5.30
CCN(C)C(=O)c1ccc(-c2ccc3c(n2)Oc2ccccc2[C@@H]3C(C)(C)C(=O)Nc2nncs2)cc1F | = | 7.06
CN(C)C(=O)c1ccc(-c2ccc3c(n2)Oc2ccccc2[C@H]3C(C)(C)C(=O)Nc2nncs2)cc1 | < | 5.30

* * *

biological target: Glucocorticoid receptor (Homo sapiens); assay: Transrepression activity at glucocorticoid receptor alpha in phorbol myristate acetate-stimulated human A549 cells assessed as inhibition of AP1 response element by luciferase reporter gene assay; type: cell-based
// reported EC50 per item
OBSERVABLE: EC50

SUBSTANCE_SMILES | TARGET_SYSTEM | OBSERVED_MEASUREMENT
CN(C)C(=O)c1ccc(-c2ccc3c(n2)Oc2ccccc2[C@H]3C(C)(C)C(=O)Nc2nncs2)cc1 | Glucocorticoid receptor (Homo sapiens) | > 10 µM
CC(C)(C(=O)Nc1nncs1)[C@H]1c2ccccc2Oc2nc(-c3ccc(C(N)=O)cc3)ccc21 | Glucocorticoid receptor (Homo sapiens) | > 10 µM
COc1ccc(-c2ccc3c(n2)Oc2ccccc2[C@H]3C(C)(C)C(=O)Nc2nncs2)cc1 | Glucocorticoid receptor (Homo sapiens) | > 10 µM

* * *

target: Glucocorticoid receptor (Homo sapiens, UniProt P04150); assay: Transactivation activity at GR-alpha in human NP1 Hela cells assessed as inhibition of GAL4-DBD after 20 hrs by luciferase reporter gene assay; assay type: cell-based
pEC50: −log10 of the molar value.
Listed below: pEC50 values for each entry.

SUBSTANCE_SMILES | TARGET_SYSTEM | pEC50
CN(C)C(=O)c1ccc(-c2ccc3c(n2)Oc2ccccc2[C@H]3C(C)(C)C(=O)Nc2nncs2)cc1F | Glucocorticoid receptor (Homo sapiens, UniProt P04150) | 6.85
CCN(C)C(=O)c1ccc(-c2ccc3c(n2)Oc2ccccc2[C@H]3C(C)(C)C(=O)Nc2nncs2)cc1Cl | Glucocorticoid receptor (Homo sapiens, UniProt P04150) | 6.14
CC(C)(C(=O)Nc1nncs1)[C@H]1c2ccccc2Oc2nc(-c3ccc(C(=O)N4CCOCC4)c(F)c3)ccc21 | Glucocorticoid receptor (Homo sapiens, UniProt P04150) | 7.46
